Target: Notum (Homo sapiens, UniProt Q6P988, C330S)
Construct: comprising amino acids S81–T451 with a C330S mutation; inferred from HisTrap purification and imidazole elution
Sequence (Q6P988 81-451 C330S): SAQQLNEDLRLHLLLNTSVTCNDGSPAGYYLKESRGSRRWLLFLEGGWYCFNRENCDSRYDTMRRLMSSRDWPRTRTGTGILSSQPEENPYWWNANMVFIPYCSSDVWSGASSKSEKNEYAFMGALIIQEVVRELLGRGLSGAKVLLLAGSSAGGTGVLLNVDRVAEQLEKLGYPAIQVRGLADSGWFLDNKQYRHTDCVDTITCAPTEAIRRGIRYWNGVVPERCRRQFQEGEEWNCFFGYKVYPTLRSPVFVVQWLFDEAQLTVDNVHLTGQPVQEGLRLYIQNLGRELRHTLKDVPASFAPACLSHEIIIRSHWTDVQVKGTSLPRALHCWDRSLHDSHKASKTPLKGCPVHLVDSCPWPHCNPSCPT
Test: Cell-based TCF/LEF reporter (luciferase) assay, HEK293 STF cells with exogenous Wnt3a and Notum
Conditions: HEK293 TCF/LEF luciferase reporter cell line
measure: EC50 (nM)
// return numeric value only (unit: nM, not printed)

Ask: What EC50 value was documented for this compound, CCOC(=O)CCC(=O)N1CCc2ccccc21 ?
Result: 300

Ask: What EC50 value was documented for this compound, COC(=O)CCC(=O)N1CCc2ccccc21 [Compound 1, Methyl 4-indolinyl-4-oxobutanoate] ?
Result: 530
